Target: T1, human PEPT1 (hPEPT1) receptor domain, amino acid residues 391-571, His-tag fusion protein (human, UniProt P46059 391-571)
T1 construct: Expressed as His-tag fusion, purified under denaturing conditions, coated on plates; not shown: poly-histidine tag (pET His-tag) at the NH2-terminal end
T1 sequence: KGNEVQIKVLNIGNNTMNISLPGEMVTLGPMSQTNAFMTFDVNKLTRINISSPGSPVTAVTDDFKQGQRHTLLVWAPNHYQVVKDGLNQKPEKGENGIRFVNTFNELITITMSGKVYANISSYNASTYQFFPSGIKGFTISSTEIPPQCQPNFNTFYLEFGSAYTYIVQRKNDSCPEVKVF
Test: phage ELISA, OD on hPEPT1 over OD on BSA
Mark Criterion met for reported PEPT1/BSA of 6 ratio or greater; mark Criterion not met for anything smaller.

Query: Quick check: does SARDSGPAEDGSRAVRLNGVENANTRKSSRSNPRGRRHP (pIII and flanks not included) [phage P31] have PEPT1/BSA greater than or equal to 6 ratio?
Reply: Criterion met

Query: Quick check: does RSITDGGINEVDLSSVSNVLENANSHRAYRKHRPTLKRP (pIII and flanks not included) [phage PAX35] have PEPT1/BSA greater than or equal to 6 ratio?
Reply: Criterion met

Query: Quick check: does SFQVYPDHGLERHALDGTGPLYAMPGRWIRARPQNRDRQ (pIII and flanks not included) [phage PAX45] have PEPT1/BSA greater than or equal to 6 ratio?
Reply: Criterion not met

Query: Quick check: does SWTRWGKHTHGGFVNKSPPGKNATSPYTDAQLPSDQGPP (pIII and flanks not included) [phage PAX16] have PEPT1/BSA greater than or equal to 6 ratio?
Reply: Criterion not met

Query: Quick check: does SYCRVKGGGEGGHTDSNLARSGCGKVARTSRLQHINPRATPPSR (pIII and flanks not included) [phage PAX15] have PEPT1/BSA greater than or equal to 6 ratio?
Reply: Criterion not met

Query: Quick check: does RWPSVGYKGNGSDTIDVHSNDASTKRSLIYNHRRPLFP (pIII and flanks not included) [phage PAX9] have PEPT1/BSA greater than or equal to 6 ratio?
Reply: Criterion not met

Query: Quick check: does RWCEKHKFTAARCSAGAGFERDASRPPQPAHRDNTNRNA (pIII and flanks not included) [phage PAX43] have PEPT1/BSA greater than or equal to 6 ratio?
Reply: Criterion not met

Query: Quick check: does SFLRFQSPRFEDYSRTISRLRNATNPSNVSDAHNNRALA (pIII and flanks not included) [phage PAX18] have PEPT1/BSA greater than or equal to 6 ratio?
Reply: Criterion not met

Query: Quick check: does RTFENDGLGVGRSIQKKSDRWYASHNIRSHFASMSPAGK (pIII and flanks not included) [phage PAX14] have PEPT1/BSA greater than or equal to 6 ratio?
Reply: Criterion met
